meta.source: patent US20140087995A1

- target.of.assay: T1, rat calcitonin receptor (rat, UniProt P32214 25-516)
- T1 construct: whole, on cells; membranes of transiently transfected BHK tk'ts 13 cells (Assay VIII); also called rCTR; rat calcitonin (a) receptor
- T1 sequence (looked up): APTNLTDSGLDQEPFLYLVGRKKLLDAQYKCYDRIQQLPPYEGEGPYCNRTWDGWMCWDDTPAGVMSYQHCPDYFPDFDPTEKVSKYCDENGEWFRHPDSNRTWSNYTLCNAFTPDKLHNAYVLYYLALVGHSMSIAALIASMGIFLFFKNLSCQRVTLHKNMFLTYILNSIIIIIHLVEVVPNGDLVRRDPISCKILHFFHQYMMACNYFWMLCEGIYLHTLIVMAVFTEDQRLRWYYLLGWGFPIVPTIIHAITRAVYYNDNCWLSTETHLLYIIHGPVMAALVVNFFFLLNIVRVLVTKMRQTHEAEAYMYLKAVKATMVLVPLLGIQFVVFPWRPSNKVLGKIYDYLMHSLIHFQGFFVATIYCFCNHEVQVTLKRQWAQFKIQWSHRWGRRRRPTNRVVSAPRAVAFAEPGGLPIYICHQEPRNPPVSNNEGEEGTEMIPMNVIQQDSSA
- assay: SPA competition with 125I-calcitonin, membranes of BHK cells with rat calcitonin receptor (Assay VIII)
Numbered stars: 1 amine (or outer) side, 2 acyl side, 3 side chain; on linkers, the order of the positions; unused ones are H or OH. Bridge positions count the residues as written; N and C are the ends. Side chains are listed from the residue outwards. Ends that are not written are not given here. * marks the point of attachment. C20 diacid = O=C(O)CCCCCCCCCCCCCCCCCCC(=O)*; γGlu = O=C(O)[C@H](CCC(=O)[*:2])N[*:1]; AEEA = NCCOCCOCC(=O)O
metric: pIC50
// pIC50 is dimensionless: -log10 of concentration (M)

K([AEEA-γGlu-C20 diacid])CNTATCATQRLANFLRHSSPNFGAIPSSTNVGSETY-NH2 (disulfide 2-7 (inferred), analogue of human amylin; also called compound 26)
6.82
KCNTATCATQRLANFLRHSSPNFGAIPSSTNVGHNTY (C20 diacid-gGlu on the alpha amino group of the N-terminal residue (Lys 1); disulfide bridge between the two Cys residues; C-terminal amide, analogue of human amylin; also called compound 40) [N^α1-[(4S)-4-carboxy-4-(19-carboxynonadecanoylamino)butanoyl]-[Arg17,Pro21,Pro27,His34]-h-amylin]
7.16

Alright, here's another binder for you.
# pIC50 of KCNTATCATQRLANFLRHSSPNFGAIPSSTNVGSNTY (C20 diacid-gGlu-2xOEG on the alpha amino group of the N-terminal residue (Lys 1); disulfide bridge between the two Cys residues; C-terminal amide, analogue of human amylin; also called compound 24) = 6.46
